This section presents molecules with their documented pIC50 values.
TARGET SYSTEM: FPP synthase (Homo sapiens, UniProt P14324)
Sequence (P14324 whole entry, species assumed): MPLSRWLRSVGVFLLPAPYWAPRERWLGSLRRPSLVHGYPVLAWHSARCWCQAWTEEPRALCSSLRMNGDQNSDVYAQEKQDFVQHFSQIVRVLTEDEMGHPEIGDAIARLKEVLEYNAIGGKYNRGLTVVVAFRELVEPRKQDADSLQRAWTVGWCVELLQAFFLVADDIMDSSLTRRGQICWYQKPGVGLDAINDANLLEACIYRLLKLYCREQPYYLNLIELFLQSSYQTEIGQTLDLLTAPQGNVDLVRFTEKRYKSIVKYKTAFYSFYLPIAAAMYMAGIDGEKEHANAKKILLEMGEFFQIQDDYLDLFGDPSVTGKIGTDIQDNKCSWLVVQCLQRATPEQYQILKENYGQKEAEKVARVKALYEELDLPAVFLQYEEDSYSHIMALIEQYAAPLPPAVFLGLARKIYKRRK
pIC50: −log10 of the molar value.

- STRUCTURE SMILES: "CC(C)=CCC/C(C)=C/CC(C/C=C(\\C)CCC=C(C)C)(P(=O)(OCOC(=O)C(C)(C)C)OCOC(=O)C(C)(C)C)P(=O)(OCOC(=O)C(C)(C)C)OCOC(=O)C(C)(C)C"
  pIC50: "< 4.30"

Now let's try a different one.
Could you share which pIC50 value was measured for CC(C)=CCC/C(C)=C/CC(C/C=C(\C)CCC=C(C)C)(P(=O)(O)O)P(=O)(O)O ?
< 4.30
